- target or system: Plasminogen (Homo sapiens)
- Sequence (P00747 97-580 limits assumed): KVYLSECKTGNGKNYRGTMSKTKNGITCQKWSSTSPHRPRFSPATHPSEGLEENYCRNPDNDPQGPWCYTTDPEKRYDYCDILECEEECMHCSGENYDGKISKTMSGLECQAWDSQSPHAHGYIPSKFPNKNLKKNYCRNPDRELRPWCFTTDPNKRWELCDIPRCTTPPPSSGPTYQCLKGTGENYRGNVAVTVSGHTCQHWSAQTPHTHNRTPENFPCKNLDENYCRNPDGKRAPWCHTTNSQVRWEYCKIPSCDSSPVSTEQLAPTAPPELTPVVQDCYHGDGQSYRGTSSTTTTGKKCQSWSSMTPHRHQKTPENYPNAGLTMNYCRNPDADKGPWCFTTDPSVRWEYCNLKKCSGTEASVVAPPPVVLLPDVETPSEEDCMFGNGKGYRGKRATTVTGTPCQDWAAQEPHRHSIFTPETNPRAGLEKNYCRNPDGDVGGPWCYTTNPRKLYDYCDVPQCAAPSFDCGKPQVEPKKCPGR
- Sequence (P00747 581-810 limits assumed): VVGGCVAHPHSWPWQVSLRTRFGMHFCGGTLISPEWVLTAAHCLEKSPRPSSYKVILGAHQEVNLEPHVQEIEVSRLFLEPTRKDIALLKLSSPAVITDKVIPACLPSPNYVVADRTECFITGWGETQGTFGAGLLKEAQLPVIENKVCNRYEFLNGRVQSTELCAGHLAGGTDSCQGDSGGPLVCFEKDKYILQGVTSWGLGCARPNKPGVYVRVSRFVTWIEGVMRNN
value type: IC50

CC(=O)N[C@@H](/C=C1/C=C[C@H](N)CC1)C(=O)N[C@@H](/C=C1/C=C[C@H](NC(C)=O)CC1)C(=O)O [DEHYDRORADIOSUMIN] on Plasminogen (Homo sapiens) gives IC50 = 209 µM

Numbers sourced from ChEMBL document CHEMBL1150915.
